// data source = patent US5466671A

system: M. morganii; assay: Minimal inhibitory concentration (liquid culture); conditions: inoculum 400 CFU/ml; a-b = highest concentration with growth - lowest without growth
Residues, ends and D or L forms follow the SMILES beside them.
parameter_measured: minimal inhibitory concentration (MIC)

# molecule, system, minimal inhibitory concentration (MIC)
data = [
    ("CC[C@H](C)[C@H](NC(=O)[C@@H]1CCCN1C(=O)[C@H](C)NC(=O)[C@@H]1CCCN1C(=O)[C@H](CCCNC(=N)N)NC(=O)[C@@H]1CCCN1C(=O)[C@H](CCCNC(=N)N)NC(=O)[C@@H](N)CC(N)=O)C(=O)N[C@@H](CCC(N)=O)C(=O)N1CCC[C@H]1C(=O)N[C@@H](CCCNC(=N)N)C(=O)N1CCC[C@H]1C(=O)N1CCC[C@H]1C(=O)N[C@@H](Cc1c[nH]cn1)C(=O)N1CCC[C@H]1C(=O)N[C@@H](CCCNC(=N)N)C(=O)N[C@@H](CC(C)C)C(=O)O [Cd 1-] (H-NRPRPAPIQPRPPHPRL-OH)", "M. morganii", "20 to 40 µg/mL"),
]

Pending molecule:
## Input Need minimal inhibitory concentration (MIC), item CC(C)C[C@H](NC(=O)[C@H](CCCNC(=N)N)NC(=O)[C@@H]1CCCN1C(=O)[C@H](Cc1c[nH]cn1)NC(=O)[C@@H]1CCCN1C(=O)[C@@H]1CCCN1C(=O)[C@H](CCCNC(=N)N)NC(=O)[C@@H]1CCCN1C(=O)[C@@H]1CCCN1C(=O)[C@@H](NC(=O)[C@H](CCC(N)=O)NC(=O)[C@H](CCC(N)=O)NC(=O)[C@@H]1CCCN1C(=O)[C@H](CCCNC(=N)N)NC(=O)[C@@H]1CCCN1C(=O)[C@H](CCCCN)NC(=O)[C@H](CC(N)=O)NC(=O)[C@@H](N)CO)C(C)C)C(=O)O [Yj +S] (H-SNKPRPQQVPPRPPHPRL-OH)
## Output 0.5 to 1 µg/mL
